experiment: endothelial E-selectin expression blockers – imaging, HUVEC, immunofluorescence, MLSMR starter and 10KST1 sets, primary screen (AID 487); settings: HUVEC TNFalpha-induced E-selectin immunofluorescence imaging, at 2 µM; measured here: cell number, toxicity;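 also: 100% = median nuclei count of all wells on the same plate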
property: nuclei count (%)
A number alone suffices; assume %.

What value of measured nuclei count is listed for N#Cc1ccccc1Cn1c(=O)n(Cc2ccc(C(=O)NCc3ccco3)cc2)c(=O)c2ccccc21 ?
92.1

# query: nuclei count of entry C/C=C/Cn1c(SCCCc2ccccc2)nc2c1c(=O)[nH]c(=O)n2C
102

Please report the recorded nuclei count for Cc1c(NC(=O)c2ccc(CN3CCc4ccccc4C3)cc2)c(=O)n(-c2ccccc2)n1C .
142

Requested field: nuclei count. Item: Cn1nc(C(=O)N2CCOCC2)c2ccccc2c1=O
130

Can you share its nuclei count? I mean this molecule: COc1cccc(NC(=O)N2CCN(c3cccc(C)c3C)CC2)c1
93.3

Given the entry C=CC(O)(C#CCN(CC)CC)c1ccccc1 (configuration not stated) , report its measured nuclei count.
110

What nuclei count value was documented for this molecule, Nc1nc(Nc2cccc3ccccc23)nc(C2CCCC2=O)n1 (configuration not stated) ?
109

May I ask what nuclei count has been recorded for COc1ccc2[nH]c(=O)c(CN(C(=O)c3cccnc3)c3ccccc3OC)cc2c1 ?
113

Need nuclei count, item CCc1cc2c(=O)n(C(C)C(=O)OC3CCCCC3)cnc2s1 (configuration not stated)
103

Which nuclei count is reported for this molecule? Cc1ccc(C2C(C(=O)c3sc(C)nc3C)=C(O)C(=O)N2CCN(C)C)o1 (configuration not stated)
127

Looking for the measured nuclei count of Cc1cc(Cl)cc2c1NC(=O)[C@]21[C@@H]2C(=O)N(Cc3ccccc3)C(=O)[C@@H]2[C@@H]2CCCN21 , can you help?
107

nuclei count for Cc1cccc(NC(=O)Cn2c(=O)n(C)c3ccccc32)c1 ?
107

Value lookup for nuclei count; key = COCCn1c(SCC(=O)Nc2ccc3c(c2)OCCO3)nc2c(c1=O)SC(C)C2 (configuration not stated)
116

Please report the recorded nuclei count for C=CCNC(=O)CN(c1cccc(Br)c1)S(C)(=O)=O .
115

Would you mind telling me what nuclei count value was observed for CC(C)[C@H](NC(=O)OC(C)(C)C)c1nnc(SCc2cccc(F)c2)o1 ?
122

Using the record for O=C(c1ccco1)N1CCN(S(=O)(=O)c2ccc3c(c2)CCN3C(=O)C2CCC2)CC1 , report its nuclei count.
115

Suppose we examine the molecule Cc1csc(NC(=O)C2CCCO2)n1 (configuration not stated) ; what nuclei count value has been reported?
134

Entry under review: COc1cc(C)nc(N2CCCC(C(=O)Nc3cccc(Cl)c3Cl)C2)n1 (configuration not stated) . Reported nuclei count?
103

Sample Cc1nc2sc(C(c3cccc(F)c3)N3CCCCC3)c(O)n2n1 (configuration not stated) — what was its nuclei count?
120

Would you kindly share the measured nuclei count for CCN(CC)S(=O)(=O)c1cccc(-c2nnc(SCC(N)=O)n2CCc2ccccc2)c1 ?
125

nuclei count lookup needed for CCCOc1ccc(S(=O)(=O)NCCCN2CCOCC2)c2ccccc12 , thanks.
118

Please report the recorded nuclei count for CN1CC=C2C(C#N)=C(N)C(C#N)(C#N)C(Cc3ccccc3)C2C1 (configuration not stated) .
102

---

assay: inhibitors of TNFa-induced NFkB p65 translocation, primary screen, imaging, HUVEC, MLSMR starter and 10KST1 sets (AID 438); conditions: HUVEC TNFa-induced p65 nuclear translocation; at 2 µM, stronger effect = higher value, 0% TNFa-plus-vehicle, 100% no-TNFa wells;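 also: compound added about 3h40 before a 20 min TNFalpha stimulation; signal is the nuclear over cytoplasmic p65 intensity ratio per well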
Can you tell me inhibition for the items I'm about to list?
The reply should be a number in %, with the unit left off.

For the compound CCOc1ccccc1NC(=O)CSc1nnc(Cc2cccn2C)n1-c1ccc(F)cc1 , what inhibition is on record?
-2.9

State the recorded inhibition for this entry: C=CCOC(=O)CCC(=O)Nc1cc(OC)nc(OC)n1
-12.9

For the compound CCOC(=O)CN1C(=O)C2(OCCCO2)c2ccccc21 , what inhibition is on record?
-18.5

Which value of inhibition has been reported for O=C(O)c1ccc2c(c1)C(=O)N(c1ccc(Cl)cn1)C2=O in the records?
-4.5

Consider the compound Cc1ccc(NC(=O)c2ccccc2O)cc1 and give its measured inhibition.
12.1

// lookup inhibition for O=S(=O)(c1ccc2c(c1)OCCO2)N1CCN(Cc2ccc3c(c2)OCO3)CC1
1.9

Reported inhibition, compound CCCN1C2CCCC1CC(NC(=O)Nc1cccc(C(C)=O)c1)C2 (configuration not stated) : ____
-10.3

inhibition for Cc1ccccc1NS(=O)(=O)c1cc(S(C)(=O)=O)ccc1Cl ?
7.7

Which inhibition reading was recorded for the compound COc1ccc(-n2ncc3c(N4CCC(C)CC4)ncnc32)cc1 ?
-1.3

Which inhibition is listed for COc1ccc(Br)cc1C1N2CC3(C)CN1CC(C)(C2)C3=O (configuration not stated) ?
5.6

Requested field: inhibition. Item: COCCCNC(=O)CCn1c(=O)c2ccccc2n(CC(=O)Nc2ccc(C)cc2C)c1=O
-7.3

I have this compound here, C=CCn1c(SCC(=O)NCC2CCCO2)nc2scc(-c3ccco3)c2c1=O (configuration not stated) , and I need its recorded inhibition.
-10.3

Could you tell me which inhibition is on file for CCOC(=O)c1cccc(NC(=O)c2ccco2)c1 ?
2.9

Could you share which inhibition value was measured for CC1=CCC2C(=O)N(c3nc(C)cc(C)n3)C(=O)C2C1 (configuration not stated) ?
4.2

Value lookup for inhibition; key = Cc1cc(C)n(-c2nc3sc4c(c3c3nnc(SC(C)C)n23)CC(C)(C)OC4)n1
8.5

Which inhibition is listed for O=C(CSc1nnc(CNC(=O)c2cccs2)o1)NC1CCCC1 ?
-14.4

// lookup inhibition for COc1ccc(-c2nc(C(N)=O)c3[nH]c(=O)n(-c4cccc(Cl)c4)c3n2)cc1OC
-1

Given the compound CCOc1ccc(N(CC(=O)Nc2cccc(OC)c2)S(=O)(=O)c2c(C)noc2C)cc1 , what is its reported inhibition?
-7.9

# inhibition lookup, item CCC(C)(C)NC(=O)C(c1ccco1)N(C(=O)Cn1nnc2ccccc21)c1ccc2c(c1)OCO2 (configuration not stated)
-25

Would you mind telling me what inhibition value was observed for CC1=C(C(=O)OC2CCCCC2)C(c2ccc(C)o2)C2=C(CC(C)(C)CC2=O)N1 (configuration not stated) ?
-2.4

Which inhibition value is on record for CCc1nn2c(N3CCOCC3)cc(C)nc2c1-c1ccc(F)cc1 ?
-9.7

Item O=C(c1ccc2c(c1)OCCO2)C1CCN(C(=O)c2ccc(F)cc2)CC1 has what recorded inhibition?
-10

Recorded values, source PubChem BioAssay.
